Hi there, I'd appreciate the recorded PIF 1 (photoirritancy factor, earlier software) for every entry that follows.
Test system: BALB/c 3T3 (CCL-163) cells
testProtocol: 3T3 Neutral Red uptake phototoxicity assay (with/without UVA)
Respond numerically, and do not add a unit to the figure.

# lookup: BALB/c 3T3 (CCL-163) cells PIF 1 (photoirritancy factor, earlier software), key = CC1c2ccc(N)c(O)c2C(=O)C2=C(O)C3(O)C(=O)C(C(N)=O)=C(O)CC3C(O)C21 (stereo not shown) [COL 805, 9-amino-4-dedimethylaminodoxycycline]
1.0

# lookup: BALB/c 3T3 (CCL-163) cells PIF 1 (photoirritancy factor, earlier software), key = CCCCCCCCCCCCCCCC(=O)Nc1ccc2c(c1O)C(=O)C1=C(O)C3(O)C(=O)C(C(N)=O)=C(O)CC3CC1C2 (stereo not shown) [COL 311]
1.0

# lookup: BALB/c 3T3 (CCL-163) cells PIF 1 (photoirritancy factor, earlier software), key = O=C(NCN1CCNCC1)C1=C(O)CC2CC3Cc4cccc(O)c4C(=O)C3=C(O)C2(O)C1=O (stereo not shown) [COL 315]
15.8

# lookup: BALB/c 3T3 (CCL-163) cells PIF 1 (photoirritancy factor, earlier software), key = CC1c2cccc(O)c2C(=O)C2=C(O)C3(O)C(=O)C(C(N)=O)=C(O)CC3C(O)C21 (stereo not shown) [COL 8, 4-dedimethylaminodoxycycline]
165

* * *

Tested on: BALB/c 3T3 (CCL-163) cells
testProtocol: 3T3 Neutral Red uptake phototoxicity assay (with/without UVA)
valueKind: PIF 2 (photoirritancy factor, OECD Draft Guideline 432)
Respond numerically, and do not add a unit to the figure.

Annotate the compound CN(C)c1cc([N+](=O)[O-])c(O)c2c1CC1CC3CC(O)=C(C(N)=O)C(=O)C3(O)C(O)=C1C2=O (stereo not drawn) with its measured PIF 2 (photoirritancy factor, OECD Draft Guideline 432).
1.35

Annotate the compound CN(C)c1ccc(O)c2c1CC1CC3CC(O)=C(C(N)=O)C(=O)C3(O)C(O)=C1C2=O (stereo not drawn) with its measured PIF 2 (photoirritancy factor, OECD Draft Guideline 432).
2.04

Annotate the compound O=C(NCN1CCNCC1)C1=C(O)CC2CC3Cc4cccc(O)c4C(=O)C3=C(O)C2(O)C1=O (stereo not drawn) with its measured PIF 2 (photoirritancy factor, OECD Draft Guideline 432).
35.30

Annotate the compound NC(=O)C1=C(O)CC2CC3Cc4c([N+](=O)[O-])ccc(O)c4C(=O)C3=C(O)C2(O)C1=O (stereo not drawn) with its measured PIF 2 (photoirritancy factor, OECD Draft Guideline 432).
23.32

Annotate the compound O=C(NCN1CCOCC1)C1=C(O)CC2CC3Cc4cccc(O)c4C(=O)C3=C(O)C2(O)C1=O (stereo not drawn) with its measured PIF 2 (photoirritancy factor, OECD Draft Guideline 432).
89.48

Annotate the compound NC(=O)C1=C(O)C[C@@H]2C[C@@H]3Cc4cccc(O)c4C(=O)C3=C(O)[C@]2(O)C1=O with its measured PIF 2 (photoirritancy factor, OECD Draft Guideline 432).
84.72

Annotate the compound CC1c2cccc(O)c2C(=O)C2=C(O)C3(O)C(=O)C(C(N)=O)=C(O)CC3C(O)C21 (stereo not drawn) with its measured PIF 2 (photoirritancy factor, OECD Draft Guideline 432).
82.61

Annotate the compound NC(=O)C1=C(O)CC2CC3Cc4ccc([N+](=O)[O-])c(O)c4C(=O)C3=C(O)C2(O)C1=O (stereo not drawn) with its measured PIF 2 (photoirritancy factor, OECD Draft Guideline 432).
13.82

Annotate the compound O=C(NCN1CCCCC1)C1=C(O)CC2CC3Cc4cccc(O)c4C(=O)C3=C(O)C2(O)C1=O (stereo not drawn) with its measured PIF 2 (photoirritancy factor, OECD Draft Guideline 432).
58.22

Annotate the compound O=C(NCN1CCCC1)C1=C(O)CC2CC3Cc4cccc(O)c4C(=O)C3=C(O)C2(O)C1=O (stereo not drawn) with its measured PIF 2 (photoirritancy factor, OECD Draft Guideline 432).
75.11

Annotate the compound CN(C)CC(=O)Nc1ccc2c(c1O)C(=O)C1=C(O)C3(O)C(=O)C(C(N)=O)=C(O)CC3CC1C2 (stereo not drawn) with its measured PIF 2 (photoirritancy factor, OECD Draft Guideline 432).
12.87

Annotate the compound CN(C)c1ccc2c(c1O)C(=O)C1=C(O)C3(O)C(=O)C(C(N)=O)=C(O)CC3CC1C2 (stereo not drawn) with its measured PIF 2 (photoirritancy factor, OECD Draft Guideline 432).
1.56

* * *

System: BALB/c 3T3 (CCL-163) cells
testProtocol: 3T3 Neutral Red uptake phototoxicity assay (with/without UVA)
valueKind: PIF 1 (photoirritancy factor, earlier software)
Respond numerically, and do not add a unit to the figure.

Annotate the molecule NC(=O)C1=C(O)C[C@@H]2C[C@@H]3Cc4cccc(O)c4C(=O)C3=C(O)[C@]2(O)C1=O [COL 3] with its measured PIF 1 (photoirritancy factor, earlier software).
647

Annotate the molecule O=C(NCN1CCCC1)C1=C(O)CC2CC3Cc4cccc(O)c4C(=O)C3=C(O)C2(O)C1=O (stereo not drawn) [COL 312] with its measured PIF 1 (photoirritancy factor, earlier software).
62.67

Annotate the molecule O=C(NCN1CCOCC1)C1=C(O)CC2CC3Cc4cccc(O)c4C(=O)C3=C(O)C2(O)C1=O (stereo not drawn) [COL 314] with its measured PIF 1 (photoirritancy factor, earlier software).
41.1

Annotate the molecule CC1c2cccc(O)c2C(=O)C2=C(O)C3(O)C(=O)C(C(=O)NCN4CCCC4)=C(O)CC3C(O)C21 (stereo not drawn) [COL 807] with its measured PIF 1 (photoirritancy factor, earlier software).
40.4

Annotate the molecule CC1c2ccc([N+](=O)[O-])c(O)c2C(=O)C2=C(O)C3(O)C(=O)C(C(N)=O)=C(O)CC3C(O)C21 (stereo not drawn) [COL 804, 9-nitro-4-dedimethylaminodoxycycline] with its measured PIF 1 (photoirritancy factor, earlier software).
1.0

Annotate the molecule CC1c2ccc(NC(=O)CN(C)C)c(O)c2C(=O)C2=C(O)C3(O)C(=O)C(C(N)=O)=C(O)CC3C(O)C21 (stereo not drawn) [COL 802] with its measured PIF 1 (photoirritancy factor, earlier software).
1.0

Annotate the molecule NC(=O)C1=C(O)CC2CC3Cc4ccc(N)c(O)c4C(=O)C3=C(O)C2(O)C1=O (stereo not drawn) [COL 308] with its measured PIF 1 (photoirritancy factor, earlier software).
1.0

Annotate the molecule CN(C)CC(=O)Nc1ccc2c(c1O)C(=O)C1=C(O)C3(O)C(=O)C(C(N)=O)=C(O)CC3CC1C2 (stereo not drawn) [COL 309] with its measured PIF 1 (photoirritancy factor, earlier software).
5.17

Annotate the molecule NC(=O)C1=C(O)CC2CC3Cc4ccc([N+](=O)[O-])c(O)c4C(=O)C3=C(O)C2(O)C1=O (stereo not drawn) [COL 303] with its measured PIF 1 (photoirritancy factor, earlier software).
5.27

Annotate the molecule NC(=O)C1=C(O)CC2CC3Cc4c(N)ccc(O)c4C(=O)C3=C(O)C2(O)C1=O (stereo not drawn) [COL 307] with its measured PIF 1 (photoirritancy factor, earlier software).
1.17

Annotate the molecule O=C(NCN1CCCCC1)C1=C(O)CC2CC3Cc4cccc(O)c4C(=O)C3=C(O)C2(O)C1=O (stereo not drawn) [COL 313] with its measured PIF 1 (photoirritancy factor, earlier software).
80.27

Annotate the molecule CC1c2cccc(O)c2C(=O)C2=C(O)C3(O)C(=O)C(C(=O)NCN4CCCCC4)=C(O)CC3C(O)C21 (stereo not drawn) [COL 808] with its measured PIF 1 (photoirritancy factor, earlier software).
46.45

Annotate the molecule CN(C)c1ccc2c(c1O)C(=O)C1=C(O)C3(O)C(=O)C(C(N)=O)=C(O)CC3CC1C2 (stereo not drawn) [COL 306] with its measured PIF 1 (photoirritancy factor, earlier software).
1.64

Annotate the molecule CC(=O)Nc1ccc2c(c1O)C(=O)C1=C(O)C3(O)C(=O)C(C(N)=O)=C(O)CC3C(O)C1C2C (stereo not drawn) [COL 801, 9-acetamido-4-dedimethylaminodoxycycline] with its measured PIF 1 (photoirritancy factor, earlier software).
1.0

Annotate the molecule NC(=O)C1=C(O)CC2CC3Cc4c([N+](=O)[O-])ccc(O)c4C(=O)C3=C(O)C2(O)C1=O (stereo not drawn) [COL 302] with its measured PIF 1 (photoirritancy factor, earlier software).
23.16

Just for reference, patent US20050164993A1 is where these values come from.
